Data provenance is PubChem BioAssay AID651812.

Assay: qHTS for inhibitors of Vif-A3G interactions: Cherry picks; further: nearly all actives have a fitted effect of over 80% in size
Settings: HeLa A3G-eYFP + Vif, 24 h; eYFP fluorescence increase; series mostly up to 36.9 µM
Source text: The recent discovery and characterization of host restriction factors, which provide a potent defense to invading retroviruses, has provided new targets for antiviral drug development. […] In the presence of an inhibitor, it is expected that Vif will be unable to degrade A3G-eYFP and/or A3F-eYFP, resulting in an increase in yellow fluorescence. […]
The whole screen tested about 2,100 compounds, of which about 650 (31%) were called active. About 16% were inconclusive and are not listed. The call rests on the fitted dose curve; in most records, active means well fitted inhibition curve with a large enough effect; inconclusive means small, poorly fitted or top-dose-only effect; inactive means flat fitted curve, though single readings scatter. Some of the results follow.
Outcomes: active, inactive

INSERT INTO measurements (cpd_smiles, class_name) VALUES
  ('O=[N+]([O-])c1cc(-c2nc(-c3ccccc3)no2)ccc1NCc1ccco1', 'active'),
  ('COc1ccc(-c2cc(NC=O)c3ncc(-c4ccc(C(C)=O)cc4)n3c2)cc1OC', 'inactive'),
  ('O=C(CSc1nc2ccccc2s1)c1cc2ccccc2o1', 'inactive'),
  ('O=C(CSc1nc2ccc(Nc3nc(N4CCOCC4)nc(N4CCOCC4)n3)cc2s1)Nc1ccccc1F', 'active'),
  ('COc1cc(Cl)c(C)cc1NC(=O)CN1CCN(C(=O)C2CC2)CC1', 'inactive');

====

assay: qHTS for inhibitors of Vif-A3G interactions: Cherry picks; details: HeLa A3G-eYFP + Vif, 24 h; eYFP fluorescence increase; series mostly up to 36.9 µM; further: nearly all actives have a fitted effect of over 80% in size; further: potency means the concentration at half of the fitted maximal effect
Hit rate of the full screen: of about 2,100 compounds, about 650 (31%) were called active. Roughly 16% stayed inconclusive and do not appear here. The list shows a part of the results.
Observable: Potency

INSERT INTO results (compound, observable, test_value) VALUES
  ('COc1ccccc1C1=NOC(COc2ccc3c(C)cc(=O)oc3c2)C1 (stereo not given)', 'Potency', 'inactive'),
  ('COc1ccc(/C=N/NC(=O)c2[nH]nc3c2CCc2ccccc2-3)cc1OC', 'Potency', 'inactive'),
  ('O=C(NC1CC1)c1cccc2c1C(=O)c1ccc(N3CCC(Cc4ccccc4)CC3)cc1S2(=O)=O', 'Potency', '23.1 µM (active)'),
  ('C/C(=N\NC(=O)c1cc(C)nc2ccccc12)c1ccncc1', 'Potency', 'inactive'),
  ('CC1Cc2cc(S(=O)(=O)CCC(=O)NCc3ccc(Cl)cc3)ccc2N1C(=O)C1CC1 (stereo not given)', 'Potency', 'inactive');

====

assay: qHTS for inhibitors of Vif-A3G interactions: Cherry picks; conditions: HeLa A3G-eYFP + Vif (tagged APOBEC3G with the HIV-1 protein that degrades it), 24 h; eYFP fluorescence increase; series mostly up to 36.9 µM; further: nearly all actives have a fitted effect of over 80% in size
Out of some 2,100 compounds screened, about 650 (31%) were called active. About 16% were inconclusive and are not listed. Calls follow the shape of the dose curve; as a rule, active = well fitted inhibition curve with a large enough effect; inconclusive = small, poorly fitted or top-dose-only effect; inactive = flat fitted curve, though single readings scatter. Some of the results follow.
Possible outcomes: active, inactive

INSERT INTO measurements (cpd_smiles, class_name) VALUES
  ('O=c1cc(-c2ccccc2)[nH]c2ccccc12', 'inactive'),
  ('O=C(Cn1ncc(Cl)c(Cl)c1=O)NC(=O)NC1CCCCC1', 'inactive'),
  ('COc1ccc2nc(NC(=O)c3ccc([N+](=O)[O-])o3)sc2c1', 'inactive'),
  ('COc1ccc2nc(SCC(C)=O)c(C#N)cc2c1', 'active'),
  ('CCC(=O)Nc1nc2ccc(NC(=O)c3cc(OC)c(OC)c(OC)c3)cc2s1', 'inactive'),
  ('CCc1ccc2nc(SCC(=O)Nc3ccccc3N3CCOCC3)c(C#N)cc2c1', 'inactive'),
  ('COc1ccc2nc(SCC(=O)Nc3ccc4sc(C)nc4c3)c(C#N)cc2c1', 'active'),
  ('Cc1ccc2[nH]c(C)c(/C=C/c3cc[n+](C)cc3)c2c1', 'active'),
  ('Cc1ccc(NC(=O)CSc2n[nH]c(-c3ccccn3)n2)cc1', 'inactive'),
  ('C/C(CC(=O)NCc1ccc(Cl)cc1)=N\NC(=O)COc1ccc(C)cc1Br', 'inactive'),
  ('C=CCOC(=O)C1=C(C)NC(C)=C(C(=O)OCC=C)C1c1cn(-c2ccccc2)nc1-c1ccco1', 'inactive');
